These measurements were taken from ChEMBL document CHEMBL3045602.

test system: Pseudomonas aeruginosa; assay: Antimicrobial activity against Pseudomonas aeruginosa PTCC 1074 after 24 hr by Alamar blue assay; format: functional; settings: PTCC 1074, 24 h
PROPERTY_MEASURED: MIC (µg/mL)

// worked examples, MIC included
[[record]]
compound = "CCOC(=O)C1=C(C)NC(=O)NC1c1cnc(SC)n1Cc1ccccc1 (configuration not stated)"
target_desc = "Pseudomonas aeruginosa"
measured_result = 256

[[record]]
compound = "CC1=C(C(=O)Nc2ccccn2)C(c2cccs2)NC(=O)N1 (configuration not stated)"
target_desc = "Pseudomonas aeruginosa"
measured_result = 512


[I] CCCCOC(=O)C1=C(C)NC(=S)NC1c1cccs1 (configuration not stated)
[II] CSc1ncc(C2NC(=O)NC(C)=C2C(=O)Nc2ccccn2)n1Cc1ccccc1 (configuration not stated)
Lower MIC: I or II ? Respond with the label that goes with your answer.
II
